observable: melting point

The compound listed as Nc1cccc(-c2ccc(CCN3CCN(C(=O)Cc4ccc(F)cc4)CC3)cc2)n1 shows melting point equal to 143 to 145 °C

Recorded result, OC(c1ccccc1)(c1ccc(Cl)cc1)c1ncc[nH]1 (stereo not given) , melting point: 163 to 165 °C

# melting point of COc1ccc2nc(COc3ccc(CC4SC(=O)N(C(c5ccccc5)(c5ccccc5)c5ccccc5)C4=O)cc3)n(C)c2n1 (stereo not given) = 80 to 85 °C

The compound COCc1nnc(NCCCN2CC3CCC(CC3)C2)c2cc3ccccn3c12 showed melting point equal to 229 to 232 °C

Record CCC(=O)NCc1cccc(-c2nc(=O)c3ccccc3s2)n1 , field melting point: 199 to 200 °C

According to the records, this compound COc1ccc2c(c1)c(CC(=O)N(C)O)c(C)n2C(=O)c1ccc(Cl)cc1 displays melting point of 170 to 171 °C

// sample COCCOc1ccc(/C=C/C(=O)NS(=O)(=O)c2ccc(C)cc2)c(Oc2ncc(C(F)(F)F)cc2Cl)c1 , its melting point was 102 to 106 °C

Notebook: CCOC(=O)N1CCN(c2cc3nc(C(C)(C)C)sc3cc2N=C=S)CC1 , melting point read as 131 to 134 °C

get_value(item= Cc1cc(-c2ncc(OC3SCC(O)C(O)C3O)cc2F)ccn1 (stereo not given) , readout=melting point) returns 143 °C

Reported melting point for O=c1c(Cl)c2sc3ccccc3nc-2c2ccccc12 was 230 to 231 °C

CC1(C)CON(Cc2ccc(N3C(=O)c4ccccc4C3=O)cc2Br)C1=O yielded melting point of 158 to 159 °C

Item: CCc1noc(C)c1-c1[nH]c2ccccc2c1C(=O)CCC(=O)O | melting point: 98 to 110 °C

Field melting point (entry CC(=O)Nc1ccc(OC(F)F)c(F)c1 ) reads 112 to 113 °C

Looking up CC(=O)c1ccc(Nc2cccc(-c3cnc(N)nc3)c2)c([N+](=O)[O-])c1 , I found its melting point recorded as 233 to 236 °C

melting point in this record for Cc1cc2[nH]c(CC(C)(C)N3C(=O)c4ccccc4C3=O)nn2n1 : 197 to 199 °C

For reference, reported melting point for CC(=C1SC(=O)NC1=O)c1cccc(OCCOc2c(-c3ccc(F)c(F)c3)n(C)c3ccccc3c2=O)c1 stands at 236 to 240 °C

GET /value?item= Cc1cccc(COc2cccnc2N)c1F &field=melting point returns 115 to 118 °C

GET /value?item= CC(C)(C)OC(=O)N1CC(O)C(N2CCC(Cc3ccc(Cl)cc3)CC2)C1 (stereo not given) &field=melting point returns 99 to 102 °C

The reported value for CC(C)C(C(=O)O)c1ccc(Cl)cc1 (stereo not given) in terms of melting point is 88 to 89 °C

Notebook: Cn1cc(C(N)=O)c(=O)c2sccc21 , melting point read as 255 to 258 °C

----------
Would you kindly list melting point for each of these compounds?

Noted for N#Cc1cc[nH]c1-c1ccc(Cl)cc1 : its melting point reads 165 to 166 °C

compound Nc1c(F)c(N2CCC(n3ccnn3)CC2)c(F)c2c1c(=O)c(C(=O)O)cn2C1CC1 , melting point observed: 274 to 276 °C

Field melting point (entry CN1Sc2cc3c(cc2CC1=O)CCCC3 ) reads 202 to 203 °C

# compound Cc1nccn1CCC(=O)NC(C)c1ccc(Cl)cc1 (centres undefined) ; its melting point = 135 to 137 °C

The reported value for CCOC(=O)C(=O)c1c[nH]c2ccc(Br)cc12 in terms of melting point is 182 to 183 °C

The compound listed as O=Cc1c[nH]c2ccc(C(F)(F)F)cc12 has a reported melting point of 242 to 243 °C

According to the records, this compound C=Cc1c(F)c(F)cc2c(=O)c(C(=O)O)cn(C3CC3)c12 displays melting point of 183 to 188 °C

For record NC(=S)Cc1cccc(Oc2ccccc2)c1O the listed melting point is 70 °C

Just so you know, measured melting point for CNC(=O)C(C)(C)N(OC(C)(C)C#N)C(C)(C)C came out at 96 to 101 °C

// melting point value for O=C(O)COc1ccc(SCc2cc(-c3ccc(Cl)cc3)no2)c2c1CCC2 : 92 to 94 °C

Data point: Cn1nc(Sc2ccc(C(=O)O)c(Cl)c2)n(C)c1=O ; melting point = 222 °C

// melting point value for COc1cc(OC)c2c(c1)c(C(=O)C(=O)NC1=CC(=O)OC1)cn2Cc1ccc(Cl)cc1 : 280 to 282 °C

melting point for O=C(NCCC1OCCO1)c1cc(Br)c(Br)[nH]1 is 155 to 157 °C

Documented melting point of CCCCCCc1ccc2c3ccc(C=O)cc3n(C)c2c1 : 55 to 56 °C

Reported melting point for CCCCCCC1CC(=O)C2=C(C1)NC(=O)CC2 (centres undefined) was 142 to 144 °C

Query CC1(C)CCC(C)(C)c2cc(-c3cc(-c4ccc(C(=O)O)cc4)ccc3OCCCCN)ccc21 yields melting point of 250 °C

For CC(C)CC1(CC(C)C)CCc2c(OCc3ccc4ccccc4n3)cccc2C1O (centres undefined) the compound record lists melting point as 144 to 146 °C

melting point for N#Cc1cc(Cl)c(N)c(I)c1 is 121 to 123 °C

melting point for COCCC(=O)OC[C@@H](O)[C@@H]1CC(c2ccc(-c3ccc(N4C[C@H](Cn5ccnn5)OC4=O)cc3F)cn2)=NO1 is 130 °C

// CCOC(=O)/C=C/c1nc(COc2ccc(CO)cc2OC)c(C)o1 : melting point value = 96 to 97 °C

Per the records, this compound ( O=C1c2cccc3cc([N+](=O)[O-])cc(c23)C(=O)N1O ) has melting point equal to 277 to 279 °C

Item: Cc1nc(SCc2cc(O)nc(O)n2)sc1CC(=O)O | melting point: 246 to 247 °C

The recorded melting point for O=c1cc(C(F)(F)F)c2c(O)cc(O)cc2o1 is 212 to 214 °C

The compound listed as Cc1onc(-c2ccccc2)c1-c1ccccc1 has a reported melting point of 95.5 to 96.2 °C

Entry Cn1c2c(c3cccc(F)c31)C(=O)CCC2 — recorded melting point = 126 to 128 °C

Value of melting point reported for the compound O=CNc1ccccc1CCc1ccccn1 is 78 to 81 °C

# melting point of CC(=O)c1ccc2c(c1)Cc1cccc(C(C)=O)c1-2 = 128 to 129 °C

For record Cc1noc(NS(=O)(=O)c2cccc([N+](=O)[O-])c2)c1Br the listed melting point is 151 to 153 °C

Lab note: Nc1cc(Cl)nc(S(=O)(=O)Cc2cccc(Br)c2)n1 gave melting point of 191 to 192 °C

C[C@H](N=C(C(=O)O)C(C)(C)C)c1ccccc1 yielded melting point of 135 to 136 °C

Lab note: CS(=O)(=O)c1ccc(-c2cc(C(=O)CCCO[N+](=O)[O-])nn2-c2ccc(Cl)cc2)cc1 gave melting point of 131 to 132 °C

Record O=C(OCc1ccccc1)N1CCC(Nc2nc3cccnc3n2Cc2ccc(F)cc2)CC1 . Reported melting point: 130 °C

For COC(=O)C(=O)c1ccc(OCCCOc2ccccc2)cc1 the compound record lists melting point as 61 to 62 °C

So, COc1c(Cl)c(-c2ccc(C(C)C)cc2)cc2oc(=O)c(C)c(C)c12 ? Its melting point was 168 °C

melting point measured on Cc1ccccc1C(Oc1cc(OCc2ccccc2)ccc1C#N)C(=O)O (racemic) = 128 to 130 °C

Per the record, N#Cc1c(Br)c(-c2ccc(Cl)cc2)n(C(=O)c2ccccc2)c1Cl has melting point of 179 to 181 °C

The recorded melting point for O=C(Nc1ccc(F)c(C(F)(F)F)c1)Nc1ccc(OCc2ccccc2)cc1O is 188 to 191 °C

The compound listed as Cc1ccc(C(C)N(O)C(N)=O)cc1 (centres undefined) shows melting point equal to 134 to 135 °C

Notebook: CC(C)(C)OC(=O)N1CCN(C2CCN(c3ccc(N)cc3C#N)CC2)CC1 , melting point read as 172 °C

Cc1cccc2sc(-c3ccccn3)nc(=O)c12 yielded melting point of 151 °C

# melting point of COc1ccc(-c2ocnc2-c2cc(OC)c(F)c(OC)c2)cc1N = 140 to 142 °C

// COC1=C(OC)C(=O)C2=C(CC(CCCCCCCCNC(C)=O)C2)C1=O : melting point value = 93 to 96 °C

Lookup result for CCOC(=O)c1ncc2[nH]c3ccc(C(=O)OCc4ccccc4)cc3c2c1CC ; measured melting point: 212 to 215 °C

Measured melting point of Cc1ccccc1Oc1nnc(Cl)c(C)c1O : 209 to 213 °C

----------
Can you tell me melting point for the items I'm about to list?

Per the record, Oc1ccc2nc(-c3ccc(O)c4ccccc34)oc2c1 has melting point of 194 to 196 °C

Measured melting point of O=C(Nc1ccc(S(=O)(=O)Nc2ncccn2)cc1)c1ccccc1SSc1ccccc1C(=O)Nc1ccc(S(=O)(=O)Nc2ncccn2)cc1 : 280 °C

Item: CCOC(=O)CCn1cc(CN(C)C)n(C2CCc3ccccc3C2)c1=S (centres undefined) | melting point: 128 to 130 °C

// field: melting point; key: CCN(CC)C(=O)c1ccsc1-c1ccc(F)cc1 ; value = 62 to 63 °C

Documented melting point of CCCCC1(CCCC)CS(=O)(=O)c2ccc(N(C)C)cc2C(c2ccc(OCc3cccnc3CCC(=O)O)cc2)C1O (centres undefined) : 105 to 107 °C

For this compound ( Cc1cc(Oc2ncc(C(F)(F)F)cc2Cl)nn1C(=O)Nc1cccc([N+](=O)[O-])c1 ), measured melting point is 172 to 174 °C

// field: melting point; key: COCC(=O)N(c1c(C)cccc1N)C(C)C(=O)OC (centres undefined) ; value = 86 to 88 °C

For this compound ( O=C(c1ccccc1)c1ccc([N+](=O)[O-])c(C(=O)NCc2ccccc2)c1 ), measured melting point is 167 °C

Data point: COc1ccc(F)cc1C(C)(C)CC(O)(C(=O)Nc1ccccc1)C(F)(F)F (centres undefined) ; melting point = 83 to 85 °C

melting point reported for this compound N#CC(C#N)=C(NCCN1CCCCC1)N1CCC(CN2CCCCC2)CC1 : 78 to 80 °C

Field melting point (entry O=C(c1ccc(Cl)c(Cl)c1)N1C(=O)N2CCCC2(Cc2ccc(Br)cc2)C1=O (centres undefined) ) reads 158 °C

Please fill in: melting point reported for O=C(c1ccc(Cl)cc1)c1ccccc1N=C=S = 162 to 166 °C

compound COc1cccc(C(=O)N(C(=O)OCCl)N(C(=O)c2cc(C)cc(C)c2)C(C)(C)C)c1C , melting point observed: 117 to 119 °C

Form field melting point, entry O=C1OCC2=C1C(c1ccccc1Cl)c1c[nH]nc1N2 (centres undefined) : > 270 °C

Recorded result, COC(Cc1ccc(OCCN(C)c2nc3ccccc3o2)cc1)C(=O)O (centres undefined) , melting point: 121 to 123 °C

# melting point (compound: Cc1ccccc1C(=O)Nc1nc(C(Cl)(Cl)Cl)ns1 ) is 170 °C

Field melting point (entry O=c1c(-c2cccc(C(F)(F)F)c2)c[nH]n1-c1cccc(C(F)(F)F)c1 ) reads 207 to 208 °C

For this compound ( CCCCCCCC/C=C\CCCCCCCCOc1cccc(N(CC(=O)OC)CC(=O)OC)c1 ), measured melting point is 36 to 37 °C

The reported melting point of the compound COC(=O)CCn1nc(-c2c(-c3ccccc3)nn3ccccc23)ccc1=O was 133 to 134 °C
